test name: Toxicity test of the active medical ingredients (previous acute toxicology)
condition set: mouse, in vivo, 8.19 mg/kg, LD50, previous acute toxicology
measured endpoint: LD50 (mg/kg)
# value in mg/kg; strip the unit string

# input Field request: LD50 | item: COC[C@@]12CCC(OC)C34C5C[C@@]6(O)C(OC(=O)c7ccccc7)C5[C@@](OC(C)=O)(C(C(OC)C31)[C@@H]4N(C)C2)[C@@H](O)C6OC (stereo partly shown)
# output 12.8

====

test name: Toxicity test of the active medical ingredients (previous acute toxicology)
condition set: mouse, in vivo, LD50
measured endpoint: LD50 (mg/kg)
Provide only the numeric value, understood in mg/kg.

* COC[C@]12CN(C)[C@H]3C4C(OC)C1C3(C(OC)CC2O)C1C[C@@]2(O)C(OC(=O)c3ccccc3)C1[C@]4(OC(C)=O)[C@@H](O)C2OC (some centres unmarked) | 6.41

Proceeding to the next compound to report its LD50.
# input Quick one: LD50 for COC[C@@]12CCC(OC)C34C5C[C@@]6(O)C(OC(=O)c7ccccc7)C5[C@@](OC(C)=O)(C(C(OC)C31)[C@@H]4N(C)C2)[C@@H](O)C6OC (some centres unmarked) ?
# output 12.8
